- STUDY TARGET: T1, Human IL-11 (human, UniProt P20809 22-199)
- T1 construct: Recombinant human IL-11 (GenScript Cat. No. Z03108-1) or IL-11 secreted by human cells; the mature form is said to have 178 residues; also called recombinant human IL-11; endogenously produced IL-11
- T1 sequence: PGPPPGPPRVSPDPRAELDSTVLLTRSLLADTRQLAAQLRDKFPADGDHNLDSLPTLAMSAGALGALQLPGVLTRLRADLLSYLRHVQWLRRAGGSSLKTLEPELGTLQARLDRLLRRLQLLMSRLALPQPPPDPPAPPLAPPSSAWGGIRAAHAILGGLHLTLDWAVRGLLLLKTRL
- ASSAY OVERVIEW: ELISA on coated recombinant human IL-11 (100 ng/well), scFv-Fc
- Method: The light chain shuffled anti-IL-11 antibodies were analysed to determine the EC50 for binding to human IL-11 by ELISA according to standard methods. Briefly, wells of microtiter plates were coated with recombinant human IL-11 (100 ng/well), scFv-Fc comprising the VH and VL domains of the clones were added in a dilution series and antibody binding was detected using a polyclonal antibody detection system.
READOUT: EC50 (µg/mL)

[
  {
    "BINDER": "YU112-C05 (antibody) EVQLVESGGGVVQPGRSLRLSCAASGFTFSSYAMHWVRQAPGKGLEWVAVISYDGSNKYYADSVKGRFTISRDNSKNTLYLQMNSLRAEDTAVYYCARIMGYDYGDYDVVDYWGQGTLVTVSSGSASAPKLEEGEFSEARVQSALTQPRSVSGSPGQSVTISCTGTISDVGGYNYVSWYQQHPGKAPKLMIYDVTKRPSGVPDRFSGSKSGNTASLTISGLQAEDEAGYYCSSYAGSYTWVFGGGTELTVL",
    "OUTPUT UNIT": "µg/mL",
    "RECORDED NUMBER": 0.012
  },
  {
    "BINDER": "YU100-H06 (antibody) QVQLVESGGGVVQPGRSLRLSCAASGFTFSSYGMHWVRQAPGKGLEWVAVISYDGSNKYYADSVKGRFTISRDNSKNTLYLQMNSLRAEDTAVYYCAKIGATDPLDYWGQGTLVTVSSGSASAPKLEEGEFSEARIQSALTQPRSVSGSPGQSVTISCTGTSSDVGGYNYVSWYQQHPGKAPKLMIYDVTKRPSGVPDRFSGSKSGNTASLTISGLQAEDEADYYCSSYAGSYTWVFGGGTKLTVL",
    "OUTPUT UNIT": "µg/mL",
    "RECORDED NUMBER": 0.013
  },
  {
    "BINDER": "YU100-A11 (antibody) EVQLQQSGGGVVQPGRSLRLSCAASGFTFSSYGMHWVRQAPGKGLEWVAVISYDGSNKYYADSVKGRFTISRDNSKNTLYLQMNSLRAEDTAVYYCAKIGATDPLDYWGQGTLVTVSSGSASAPKLEEGEFSEARVQSALTQPRSVSGSPGQSVTISCTGTSSDVGGYNYVSWYQQHPGKAPKLMIYDVSKRPSGVPDRFSGSKSGNTASLTISGLQAEDEADYYCCSYAGSYTWVFGGGTKLTVL",
    "OUTPUT UNIT": "µg/mL",
    "RECORDED NUMBER": 0.02
  },
  {
    "BINDER": "YU100-E12 (antibody) QVQLVESGGGVVQPGRSLRLSCAASGFTFSSYGMHWVRQAPGKGLEWVAVISYDGSNKYYADSVKGRFTISRDNSKNTLYLQMNSLRAEDTAVYYCAKIGATDPLDYWGQGTLVTVSSGSASAPKLEEGEFSEARVQSALTQPASVSGSPGQSITISCTGTSSDVGGYNYVSWYQQHPGTAPKLMIYDVSNRPSGVSNRFSGSKSGNTASLTISGLQAEDEADYYCSSYTSSTTWVFGGGTKLTVL",
    "OUTPUT UNIT": "µg/mL",
    "RECORDED NUMBER": 0.016
  },
  {
    "BINDER": "YU100-E01 (antibody) QVQLQQSGGGVVQPGRSLRLSCAASGFTFSSYGMHWVRQAPGKGLEWVAVISYDGSNKYYADSVKGRFTISRDNSKNTLYLQMNSLRAEDTAVYYCAKIGATDPLDYWGQGTLVTVSSGSASAPKLEEGEFSEARVQSALTQPASVSGSPGQSITISCTGTSNDIGAYNYVSWYQQHPGKAPKLLIYDVNNRPSGVSDRFSGSKSGNTASLTISGLQAEDEADYYCCSYAGSYSWVFGGGTKLTVLGQPKANPTVTLFPPSS",
    "OUTPUT UNIT": "µg/mL",
    "RECORDED NUMBER": 0.03
  }
]
